System: Vero E6
assay text: cell viability relative to DMSO; higher = less toxic
details: 72 h; 1 nM
Structures can show the parent of a compound that is named as a salt.
measurement label: cell viability (%)
Give the number; % is assumed, so skip it.

Look over these answered cases.
>  <molecule>
Nc1ccn([C@@H]2O[C@@](CO)(CCl)[C@@H](O)[C@H]2F)c(=O)n1 [ALS-8112]

>  <cell viability / %>
100

$$$$
>  <molecule>
CCCCC(CC)CCC(CC(C)C)OS(=O)(=O)O (stereo not drawn) [sodium-tetradecyl-sulfate]

>  <cell viability / %>
101

$$$$
>  <molecule>
COC(=O)C(c1ccccc1)C1CCCCN1 (stereo not drawn) [METHYLPHENIDATE HYDROCHLORIDE]

>  <cell viability / %>
99.7

$$$$
>  <molecule>
O=c1[nH]cnc2c1ncn2[C@H]1CC[C@@H](CO)O1 [didanosine]

>  <cell viability / %>
96

$$$$

Form field cell viability, entry CC(C)C[C@H](NC(=O)[C@H](CCc1ccccc1)NC(=O)CN1CCOCC1)C(=O)N[C@@H](Cc1ccccc1)C(=O)N[C@@H](CC(C)C)C(=O)[C@@]1(C)CO1 [carfilzomib] : 100

Form field cell viability, entry COc1cc(/C=C/C(=O)CC(=O)/C=C/c2ccc(O)c(OC)c2)ccc1O [curcumin] : 99.9

Form field cell viability, entry O=C(NC1CCN(CCc2c[nH]c3ccccc23)CC1)c1ccccc1 [indoramin] : 96.7

Form field cell viability, entry COc1ccc(/C=C/C(=O)O)cc1 [trans-4-methoxycinnamic-acid] : 99.3

Form field cell viability, entry O=C1C=Cc2cc(Br)ccc2C1=O [bonaphthone] : 95.5

Form field cell viability, entry CC#C[C@]1(O)CC[C@H]2[C@@H]3CCC4=CC(=O)CCC4=C3[C@@H](c3ccc(N(C)C)cc3)C[C@@]21C [mifepristone] : 98

Form field cell viability, entry C[C@]12CC[C@@H]3c4ccc(OS(=O)(=O)O)cc4CC[C@H]3[C@@H]1CCC2=O [estropipate] : 99.5

Form field cell viability, entry CC(=O)Nc1ncc([N+](=O)[O-])s1 [nithiamide] : 101

Form field cell viability, entry CN1CCN(CCc2ccc(Cl)c(Cl)c2)CC1 [BD-1063] : 105

Form field cell viability, entry CCOC(=O)[C@H](CCc1ccccc1)N[C@@H](C)C(=O)N1Cc2ccccc2C[C@H]1C(=O)O [quinapril] : 104

Form field cell viability, entry CCC[C@@H]1CC(=O)N([C@@H](CC)C(N)=O)C1 [Brivaracetam] : 89.6

Form field cell viability, entry COc1cccc(/C=N/N=C/c2cccc(OC)c2)c1 [DMeOB] : 109

###

Tested on: Calu-3
assay text: drug sensitivity score (DSS) for viability; higher = more toxic; extreme values may be limits of the assay
details: 72 h
measurement label: drug sensitivity score

>  <compound>
CC[n+]1c(-c2ccccc2)c2cc(N)ccc2c2ccc(N)cc21

>  <drug sensitivity score>
4.4

$$$$
>  <compound>
CCCN(CCC)C(=O)C(CCC(=O)OCCCN1CCN(CCOC(=O)Cc2c(C)n(C(=O)c3ccc(Cl)cc3)c3ccc(OC)cc23)CC1)NC(=O)c1ccccc1 (centres undefined)

>  <drug sensitivity score>
0

$$$$
>  <compound>
O=C(O)c1ccc(-c2c[nH]c3ncc(-c4ccccc4)cc23)cc1C1CCCC1

>  <drug sensitivity score>
0

$$$$
>  <compound>
COc1cc2nccc(Oc3ccc(NC(=O)NC4CC4)c(Cl)c3)c2cc1C(N)=O

>  <drug sensitivity score>
2.3

$$$$
>  <compound>
CN(C)C(=O)c1cc2cnc(Nc3ccc(N4CCNCC4)cn3)nc2n1C1CCCC1

>  <drug sensitivity score>
1.8

$$$$

Form field drug sensitivity score, entry CC(NCCC(c1ccccc1)c1ccccc1)c1ccccc1 (centres undefined) : 2.6

Form field drug sensitivity score, entry O=C(CN1CCNCC1)NC1CCCCC1 : 0

Form field drug sensitivity score, entry Cn1cc(-c2cnc3ccc4ccc(CS(=O)(=O)NCc5ccccn5)cc4c(=O)c3c2)cn1 : 0

Form field drug sensitivity score, entry C[N+](C)(C)CCCCCNCC12CC3CC(CC(C3)C1)C2 : 0

Form field drug sensitivity score, entry NS(=O)(=O)NCCNc1nonc1/C(=N/O)Nc1ccc(F)c(Br)c1 : 0

Form field drug sensitivity score, entry CC(C)(C)[C@]1(O)CC2OC(=O)CC23C(=O)OC2OC(=O)[C@H](O)C231 (some centres undefined) [bilobalide] : 0

Form field drug sensitivity score, entry NC(=O)NC(=O)Cc1ccccc1 [phenacemide] : 0

Form field drug sensitivity score, entry FCc1ccc(OCCOc2ccc(Cl)cc2Cl)c(Cl)n1 : 0

###

Test system: Vero E6
assay text: cell viability relative to DMSO; higher = less toxic
details: 72 h; 1 nM
Catalogue of compounds with associated cell viability
Give the number; % is assumed, so skip it.

Look over these answered cases.
>  <compound>
NCCS

>  <u>
%

>  <cell viability>
106

$$$$
>  <compound>
COc1cc2c(cc1OC(C)C)[C@H](c1ccc(Cl)cc1)N(c1ccc(N(C)C[C@H]3CC[C@H](N4CCN(C)C(=O)C4)CC3)cc1)C(=O)C2

>  <u>
%

>  <cell viability>
102

$$$$
>  <compound>
CCOC(=O)c1ncn2c1CN(C)C(=O)c1cc(F)ccc1-2

>  <u>
%

>  <cell viability>
102

$$$$
>  <compound>
Oc1cc2c(c(Cl)c1O)CCNCC2c1ccccc1 (stereo not drawn)

>  <u>
%

>  <cell viability>
104

$$$$

Form field cell viability, entry COCCOCCOc1ccc(C2=N[C@@](C)(C(=O)O)CS2)c(O)c1 : 95

###

Tested on: HepG2
assay text: cell viability relative to DMSO; higher = less toxic
details: 72 h; 100 nM
measurement label: cell viability (%)
Give the number; % is assumed, so skip it.

>  <compound>
Cn1c(CNc2ccc(C(=N)N)cc2)nc2cc(C(=O)N(CCC(=O)O)c3ccccn3)ccc21 [dabigatran]

>  <assayed target>
HepG2

>  <u>
%

>  <cell viability>
104

$$$$

Here's the next entry for you.
Form field cell viability, entry Cc1c(S(=O)(=O)O)oc2c1C(=O)C(=O)c1c-2ccc2c1CCCC2(C)C [sodium-tanshinone-II-A-sulfonate] : 116

###

Catalogue of compounds with associated cell viability
Test system: Caco-2
assay text: cell viability relative to DMSO; higher = less toxic
details: 72 h; 10 nM
Give the number; % is assumed, so skip it.

>  <molecule smiles>
CCCCCCCCCCCCOCCOCCOCCOCCOCCOCCOCCOCCOCCO

>  <cell viability / %>
105

$$$$
>  <molecule smiles>
Nc1cc(Cl)c(N=C2NCCN2)c(Cl)c1

>  <cell viability / %>
92.7

$$$$
>  <molecule smiles>
CO/N=C(\C(=O)N[C@@H]1C(=O)N2C(C(=O)O)=CCS[C@H]12)c1csc(N)n1

>  <cell viability / %>
100

$$$$
>  <molecule smiles>
C=CC(=O)Nc1ccc2ncnc(Nc3cccc(Br)c3)c2c1

>  <cell viability / %>
86.7

$$$$

Here's the next entry for you.
Form field cell viability, entry COc1ccc(-n2c(SCc3nc(-c4ccc(C)cc4)no3)nnc2-c2ccncc2)cc1 : 114

###

Tested on: Vero E6
assay text: cell viability relative to DMSO; higher = less toxic
details: 72 h; 10000 nM
Catalogue of compounds with associated cell viability
# number then unit; no other words

Look over these answered cases.
>  <compound>
c1ccc(-c2nn3c(c2-c2ccnc4cc(OCCN5CCOCC5)ccc24)CCC3)nc1

>  <observed result>
105%

$$$$
>  <compound>
CC(C)CCC[C@@H](C)[C@H]1CC[C@H]2[C@@H]3CC=C4C[C@@H](O)CC[C@]4(C)[C@H]3CC[C@]12C [cholesterol]

>  <observed result>
107%

$$$$
>  <compound>
Cc1ccc(/C=C2/C(=O)C3(C)CCC2C3(C)C)cc1 (configuration not stated) [3-(4-methylbenzylidene)camphor]

>  <observed result>
96.3%

$$$$
>  <compound>
CC(NCCC(c1ccccc1)c1ccccc1)c1ccccc1 (configuration not stated) [fendiline]

>  <observed result>
88.9%

$$$$
>  <compound>
COc1oc(=O)c2cc(N)ccc2c1Cl [JLK-6]

>  <observed result>
93.8%

$$$$

Form field cell viability, entry NCCNC(=O)c1ccc(Cl)cn1 [lazabemide] : 104%

Form field cell viability, entry COC1(C[S@@+]([O-])c2ccccc2)CCN(CCc2c[nH]c3ccc(F)cc23)CC1 : 93.8%

###

Catalogue of compounds with associated cell viability
Test system: Calu-3
assay text: cell viability relative to DMSO; higher = less toxic
details: 72 h; 100 nM
Give the number; % is assumed, so skip it.

>  <compound>
N#Cc1ccc(Cn2cncc2CN2CCN(c3cccc(Cl)c3)C(=O)C2)cc1

>  <cell viability (%)>
87.1

$$$$
>  <compound>
CCC(c1ccccc1)c1c(O)c2ccccc2oc1=O (stereo not drawn) [phenprocoumon]

>  <cell viability (%)>
102

$$$$
>  <compound>
Nc1ccc(F)cc1NC(=O)c1ccc(CNC(=O)/C=C/c2cccnc2)cc1 [chidamide]

>  <cell viability (%)>
89.4

$$$$
>  <compound>
CCCN(CCC)C(=O)C(CCC(=O)OCCCN1CCN(CCOC(=O)Cc2c(C)n(C(=O)c3ccc(Cl)cc3)c3ccc(OC)cc23)CC1)NC(=O)c1ccccc1 (stereo not drawn) [proglumetacin]

>  <cell viability (%)>
99

$$$$
>  <compound>
Nc1cc(Cl)c(N=C2NCCN2)c(Cl)c1 [apraclonidine]

>  <cell viability (%)>
106

$$$$
>  <compound>
CCCCCOc1ccc(-c2ccc(-c3ccc(C(=O)N[C@H]4C[C@@H](O)[C@@H](O)NC(=O)[C@@H]5[C@@H](O)[C@@H](C)CN5C(=O)[C@H]([C@@H](C)O)NC(=O)[C@H]([C@H](O)[C@@H](O)c5ccc(O)cc5)NC(=O)[C@@H]5C[C@@H](O)CN5C(=O)[C@H]([C@@H](C)O)NC4=O)cc3)cc2)cc1 [anidulafungin]

>  <cell viability (%)>
96.6

$$$$

Form field cell viability, entry CC1(C)CCC(C)(C)c2cc(C3(c4ccc5cc(C(=O)O)ccc5c4)SCCS3)ccc21 : 89.4

Form field cell viability, entry CC(=O)c1ccc2c(c1)N(CCCN1CCN(CCO)CC1)c1ccccc1S2 [acetophenazine] : 95.3
